test system: HL-60(TB) leukemia; assay: NCI tumour cell line growth inhibition, 48 h; in the data active = GI50 below about 0.43 µM; inactive = the rest
Output constraint: value belongs to true (active), false (inactive)

Example cases with answers are listed next.
COc1ccc(Nc2cc(C)nc(NCCCNc3ccnc4cc(Cl)ccc34)n2)cc1 :: false
CCCCCCCCn1ccc2cc(NC(=O)Cn3cc(CN4CCCCC4)nn3)ccc21 :: false
Oc1cc2ccccc2c(-c2c(O)c(O)cc3ccccc23)c1O :: false
Cn1c(/C=C/[N+](=O)[O-])cc2ccccc21 :: false

Ask: Per the assay record, what outcome was assigned to CCCCCCCCCCCCOC1C(CNC(=O)C2OC3OC(C)(C)OC3C2NC(=O)Nc2ccc(CC(=O)NC(Cc3ccccc3)C(=O)O)cc2)OC2OC(C)(C)OC21 (configuration not stated) ?
Result: false

Ask: Per the assay record, what outcome was assigned to COc1ccc(C2=NN(C(=O)c3cc(OC)c(OC)c(OC)c3)C(c3ccc(N(C)C)cc3)C2)cc1 (configuration not stated) ?
Result: false

Ask: Per the assay record, what outcome was assigned to CCCCCCCCCCCCCCCCC(=O)O.CCCCCCCCCCCCCCCCCC(=O)O.CCCCCCCCCCCCCCCCCC(=O)O.CCCCCCCCCCCCCCCCCC(=O)O.CCCCCCCCCCCCCCCCCC(=O)O.CO[CH-]OC12COC1CC(O)C1(C)C(O)C(OC(C)O)C3=C(C)C(OC(=O)C(O)C([NH-])c4ccccc4)CC(O)(C(OC(=O)c4ccccc4)C21)C3(C)C.[Cu+].[Zn].[Zn].[Zn].[Zn].[Zn] (configuration not stated) ?
Result: true

---

system: OVCAR-8 ovarian; test: NCI tumour cell line growth inhibition, 48 h; in the data active = GI50 below about 0.43 µM; inactive = the rest
Output constraint: value belongs to T for active, F for inactive

Example cases with answers are listed next.
CN(C)c1ccc(/C=C/C2=[N+](C)c3ccccc3C2(C)C)cc1 :: T
O=C1c2cccc(NCCN=Cc3ccccc3O)c2C(=O)c2c(NCCN=Cc3ccccc3O)cccc21 :: T
Cc1ccc(C)c(/C=C2\CN(C(=O)OC(C)(C)C)C/C(=C\c3cc(C)ccc3C)C2=O)c1 :: F
CC(=O)Oc1ccc(/C(=C(\C)c2ccc(Cl)cc2)c2ccc(OCCN3CCCCC3)cc2)cc1 :: F

We next turn to a different compound, shown below.
Ask: Per the assay record, what outcome was assigned to `OCc1ccc(N2CCc3ccccc3C2)cc1Cl` ?
Result: F

---

system: BT-549 breast; test: NCI tumour cell line growth inhibition, 48 h
TGI reference

Below, 2 compounds whose answers are already recorded.
O=C1c2cc([N+](=O)[O-])ccc2-c2ccc3c4ccc5c6c(ccc(c7ccc1c2c73)c64)C(=O)c1cc([N+](=O)[O-])ccc1-5 :: > 100 µM
CC(OC(=O)C(CC(=O)OC(C)(C)C)NC(=O)OC(C)(C)C)C(=O)OCc1ccccc1 (stereo not drawn) :: > 100 µM

Field: next compound
Ask: Field request: TGI | item: COc1ccc(C2CC3(c4ccccc4)ON=C(c4ccccc4)N3c3ccccc3S2)cc1 (stereo not drawn)
Result: > 100 µM

---

system: COLO 205 colon; experiment: NCI tumour cell line growth inhibition, 48 h
GI50 reference

COc1ccc2nc3cc(Cl)ccc3c(Sc3ccc([N+](=O)[O-])cc3)c2c1 :: > 100000 nM
COc1cc(-c2cc(-c3cc(OC)c(OC)c(OC)c3)nc3nc(N)[nH]c(=O)c23)ccc1Oc1ccnc2cc(Cl)ccc12 :: 12900 nM
NC(N)=N/N=C/c1ccc(-c2ccc(-c3cc(Cl)cc(Cl)c3)s2)cc1 :: 1490 nM

Ask: What reported GI50 corresponds to NCC1OC(OC2C(CO)OC(OC3C(O)C(N)CC(N)C3OC3OC(CO)C(O)CC3N)C2O)C(N)C(O)C1OC1OC(CO)C(O)C(O)C1O (stereo unspecified) on COLO 205 colon?
Result: > 50 µg/mL

Ask: What reported GI50 corresponds to `COc1cc(C(=O)Nc2cc(OC)c3ccn(C)c3c2)cc2c1C[C@]1(C)CC[C@@H](O)C(C)(C)[C@H]1O2` on COLO 205 colon?
Result: 1400 nM

Ask: What reported GI50 corresponds to `CN(C)c1ccc(/C=C/C2=[N+](C)c3ccccc3C2(C)C)cc1` on COLO 205 colon?
Result: 505 nM

---

test system: PC-3 prostate; assay: NCI tumour cell line growth inhibition, 48 h; in the data active = GI50 below about 0.43 µM; inactive = the rest
Output constraint: value belongs to YES (active), NO (inactive)

CC(=O)OC1CC2C3CCC4C[C@@H](NC(=O)C=C(C)C)CC[C@]4(C)C3CC[C@]2(C)[C@H]1C(C)N(C)C (stereo partly specified) :: NO
COc1cc([N+](=O)[O-])c(OC)cc1-c1nc2sc(Cl)cn2c1/C=N/NC1=NCCN1 :: NO
CCCCCCCCCCCCCCCCC(=O)O.CCCCCCCCCCCCCCCCCC(=O)O.CCCCCCCCCCCCCCCCCC(=O)O.CCCCCCCCCCCCCCCCCC(=O)O.CCCCCCCCCCCCCCCCCC(=O)O.CO[CH-]OC12COC1CC(O)C1(C)C(O)C(OC(C)O)C3=C(C)C(OC(=O)C(O)C([NH-])c4ccccc4)CC(O)(C(OC(=O)c4ccccc4)C21)C3(C)C.[Cu+].[Zn].[Zn].[Zn].[Zn].[Zn] (stereo unspecified) :: YES
NCC1OC(OC2C(CO)OC(OC3C(O)C(N)CC(N)C3OC3OC(CO)C(O)CC3N)C2O)C(N)C(O)C1OC1OC(CO)C(O)C(O)C1O (stereo unspecified) :: NO
CC(=O)Oc1ccc(/C(=C(\C)c2ccc(Cl)cc2)c2ccc(OCCN3CCCCC3)cc2)cc1 :: NO

We next turn to a different compound, shown below.
Ask: Per the assay record, what outcome was assigned to `O=c1oc2ccc(Br)cc2c(=O)n1-c1ccc(I)cc1F` ?
Result: NO

---

system: UACC-257 melanoma; assay: NCI tumour cell line growth inhibition, 48 h
readout.name: TGI (µM)
Use µM as the unit, but write only the number.

COc1ccc(/C=C2\C=C(c3ccccc3)N(CCc3ccccc3)C2=O)cc1OC :: 86.8
COc1cc([N+](=O)[O-])c(OC)cc1-c1nc2sc(Cl)cn2c1/C=N/NC1=NCCN1 :: 4.43
Cc1ccc2nc(C=Nc3ccc(Cl)cc3)cc(C)c2c1 :: 36.5
CCCCCC/C=C1\CCC(CN2CCOCC2)C1=O (stereo not given) :: 29.3
COc1ccc2[nH]c3c(C)c4ccnc(NCCCN(C)CCCNc5ccc6ncn7c8ccccc8c(=O)c5c67)c4c(C)c3c2c1 :: 2.9
O=C1C=CC(=O)c2c1ccc1c3ccccc3n(Cc3cccc([N+](=O)[O-])c3)c21 :: 60.1

Ask: Field request: TGI | item: `COc1cc(/C=C/C(=O)N2CCN(C(=O)c3cc(OC)c(OC)c(OC)c3)CC2)ccc1OCCCOc1cc2c(cc1OC)C(=O)N1CCC[C@H]1C=N2`
Result: 2.04

Ask: Field request: TGI | item: `CN1CCN(Cc2ccc(NC(=O)c3cccc(C#Cc4cnc(N)c5ncccc45)c3F)cc2C(F)(F)F)CC1`
Result: 1.65

---

test system: KM12 colon; experiment: NCI tumour cell line growth inhibition, 48 h
TGI reference
Use µM as the unit, but write only the number.

CC(C)Cc1cc2c(cc1O)CCC1C2CC[C@@]2(C)C1CC[C@@H]2O (stereo partly specified) :: 17.4
Cc1cc(C(C)(C)C)cc(CNC2CCCCC2)c1O :: 46.3

Field: next molecule
Ask: Field request: TGI | item: CCN(CC)C1CCC(Nc2c(C(C)=O)cnc3ccc(-c4ccc(O)c(Cl)c4)cc23)CC1 (stereo unspecified)
Result: 4.28

---

test system: SK-MEL-28 melanoma; experiment: NCI tumour cell line growth inhibition, 48 h
TGI reference

COc1cc(/C=C/C(=O)N2CCN(C(=O)c3cc(OC)c(OC)c(OC)c3)CC2)ccc1OCCCOc1cc2c(cc1OC)C(=O)N1CCC[C@H]1C=N2 :: 0.417 µM
Cn1cc(C2=C(c3cn(C)c4ccccc34)C(=O)NC2=O)c2ccccc21 :: > 25 µM
COc1cc([C@@H]2C[C@H]2c2cc(SC)n[nH]2)cc(OC)c1OC :: > 100 µM
Brc1ccc2c(c1)-c1nc3nc4c(cc3cc1CC2)CCc1ccc(Br)cc1-4 :: > 100 µM

Field: next compound
Ask: Field request: TGI | item: CC(=O)Nc1ccc(COC(O)CN2CCCCC2)cc1[N+](=O)[O-] (stereo not given)
Result: > 100 µM

---

tested on: SK-MEL-28 melanoma; test: NCI tumour cell line growth inhibition, 48 h
log10(TGI) reference
Log scale reminder: TGI in µM, then log10 taken.

Below, 9 molecules whose answers are already recorded.
COc1ccc(Nc2cc(C)nc(NCCCNc3ccnc4cc(Cl)ccc34)n2)cc1 :: 0.50
Cc1cc(C(C)(C)C)cc(CNC2CCCCC2)c1O :: 1.49
CN(Cc1cc(Cl)cc(Cl)c1O)Cc1c(O)ccc2ccccc12 :: 1.57
CC(C)Cc1cc2c(cc1O)CCC1C2CC[C@@]2(C)C1CC[C@@H]2O (some centres undefined) :: 1.46
CC1OC(OC2C(OC3CCC4(C)C(CCC5(C)C4CC=C4C6CC(C)(C)CCC6(C(=O)O)CCC45C)C3(C)CO)OCC(O)C2O)C(O)C(O)C1O (centres undefined) :: 1.60
COC(=O)C1=C(C(=O)OC)C2(C)Nc3ccccc3C2=C(c2ccccc2)C1 (centres undefined) :: 1.61
CN1CCN(Cc2ccc(NC(=O)c3cccc(C#Cc4cnc(N)c5ncccc45)c3F)cc2C(F)(F)F)CC1 :: 0.20
O=Cc1ccc(CCl)cc1 :: 1.52
CCNC(=O)O/N=C1\CCC2[C@@H]3CC=C4C[C@@H](OC5CCCCO5)CC[C@]4(C)C3CC[C@]12C (some centres undefined) :: 1.03

Ask: Field request: log10(TGI) | item: C=C(CN1CC2C[C@](C(=O)OC)(c3cc4ccccc4[nH]3)C1C(OC)C2OC)S(=O)(=O)c1ccccc1 (some centres undefined)
Result: 1.41
